# Assayed target: T1, mature human TGF-β1 (human, UniProt P01137 279-390)
# T1 construct: Bought protein (R&D Systems, Cat # 240-B/CF); also called TGF Beta 1; TGF-b1
# T1 sequence (P01137 279-390 limits assumed): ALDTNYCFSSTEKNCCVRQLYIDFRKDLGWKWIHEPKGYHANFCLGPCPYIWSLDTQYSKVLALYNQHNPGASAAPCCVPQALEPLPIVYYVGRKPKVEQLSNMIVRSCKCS
# Test: KinExA 3000, solution phase, antigen-coupled beads
Observation type: kon (M⁻¹ s⁻¹)
One number for each entry, in M⁻¹ s⁻¹.

What does the record list as kon for Fab 3.A (Fab, V domains shown, The mAb was made by linking the Fab to an IgG4 Fc region, so the mAb's chains are named; The heavy chain entry also holds the Fc, which is not in the Fab) VH: QVQLVQSGAEVKKPGASVKVSCKASGYTFTSYWMNWVRQAPGQGLEWMGQIFPASGSTNYGEMFEGRVTMTTDTSTSTAYMELRSLRSDDTAVYYCARGIGNYALDAMDYWGQGTLVTVSS VL: DIQMTQSPSSLSASVGDRVTITCRASESVDFWGNSFMHWYQQKPGKAPKLLIYLASNLESGVPSRFSGSGSGTDFTLTISSLQPEDFATYYCQQNIEDPLTFGGGTKVEIKR ?
2.1e+07
